Origin of measurements: PubChem BioAssay (NCI)

Recorded GI50, one value per entry.
Tested on: NCI-H226 lung
Assay: NCI tumour cell line growth inhibition, 48 h

# Compound, Assayed Target, Result
rows = [
    ("CCCCCCCCCCCC[n+]1ccc(C(N)=O)cc1", "NCI-H226 lung", "3.43 µM"),
    ("OCCNCCNc1c2ccccc2nc2oc3ccccc3c12", "NCI-H226 lung", "20.5 µM"),
    ("C=C1C(=O)O[C@H]2[C@H]1CC/C(CNS(=O)(=O)c1cccc3ccccc13)=C\\CC[C@@]1(C)O[C@@H]21", "NCI-H226 lung", "13.2 µM"),
    ("OC(CNC1CCCC1)Cn1c2ccccc2c2ccccc21 (stereo unspecified)", "NCI-H226 lung", "32.1 µM"),
    ("COc1ccc2nc(C)cc(Nc3ccccc3O)c2c1", "NCI-H226 lung", "28 µM"),
]

**Query** Write down the reported GI50 of CC1=C(C(=O)Nc2ccc(F)c(Cl)c2)C(c2cccc(Oc3ccccc3)c2)NC(=O)N1 (stereo unspecified) , test system: NCI-H226 lung.
**Result** 16.2 µM

**Query** Write down the reported GI50 of O=Cc1ccc(O)c2ncccc12 , test system: NCI-H226 lung.
**Result** 4.88 µM

**Query** Write down the reported GI50 of N#CC1=C(N)Oc2c(sc3c(F)cccc23)C1c1ccc(F)cc1 (stereo unspecified) , test system: NCI-H226 lung.
**Result** 1.71 µM
